# Tested on: S. aureus RN4220
# experimental.details: growth inhibition call (relative growth <= 0.2)
# condition.parameters: 50 µM
In all, about 39,000 compounds went through this assay and about 500 (1.3%) were called active. Only a selection was taken, and actives are over-represented in it overall.
Reply using exactly one outcome from active, inactive

Worked examples, 2 compounds total:
compound	category
Cc1cc(=O)n2nc(CC(=O)NCCCn3c(C)cccc3=O)nc2[nH]1	inactive
CCOC(=O)CCC(=O)OC1C(OC2C(C)C(OC3CC(C)(OC)C(O)C(C)O3)C(C)C(=O)OC(CC)C(C)(O)C(O)C(C)C(=O)C(C)CC2(C)O)OC(C)CC1N(C)C (stereo not drawn)	active

# input for lookup
Query: Could you please tell me the result logged for CCC(=O)OC1C(OC2C(C)C(OC3CC(C)(OC)C(O)C(C)O3)C(C)C(=O)OC(CC)C(C)(O)C(O)C(C)C(=O)C(C)CC2(C)O)OC(C)CC1N(C)C.CCCCCCCCCCCCOS(=O)(=O)O (stereo not drawn) in this assay?
Response: inactive

====

# Tested on: S. aureus RN4220
# experimental.details: growth inhibition call (relative growth <= 0.2)
# condition.parameters: 50 µM
Screen size: about 39,000 compounds; about 500 (1.3%) were called active. What follows is part of a selection rich in actives, with near analogues and random picks from the rest.
Reply using exactly one outcome from active, inactive

compound	category
Cc1nc2c(=O)n(C)c(=O)n(C)c2nc1Cl	active
C[C@H](CO)N1C[C@H](C)[C@H](CN(C)S(C)(=O)=O)Oc2ncc(C#CCN(C)C)cc2C1=O	inactive
C(=N\n1cnnc1)/c1ccco1	inactive
CC(=O)OCC1=C(C(=O)O)N2C(=O)[C@@H](NC(=O)CSc3ccncc3)[C@H]2SC1	active
COC(=O)[C@@H]1N2C(=O)[C@@H](N3CC4=C[C@@H](C5CC5)n5c(=O)n(C)c(=O)n5[C@@H]4[C@@H]3[C@@H](O)Cc3ccccc3)[C@H]2SC1(C)C	inactive
CCn1c(Cl)nc2c1c(=O)n(C)c(=O)n2C	inactive
COC(=O)[C@@H]1N2C(=O)[C@@H](N3C[C@](C)(OC)O[C@@H](Cc4ccccc4)[C@H]3/C=C/C3CC3)[C@H]2SC1(C)C	inactive
CCCCc1cc(CCCC)n2nc(-c3ccccc3)cc2n1	inactive

Query: Could you please tell me the result logged for "COc1ccc(CNC(=O)C[C@@H]2CC[C@@H]3[C@H](COc4ccc(NC(=O)C5CC5)cc4C(=O)N3C)O2)cc1" in this assay?
Response: inactive

====

# Test system: S. aureus RN4220
# experimental.details: growth inhibition call (relative growth <= 0.2)
# condition.parameters: 50 µM
The whole screen tested about 39,000 compounds, of which about 500 (1.3%) were called active. For the sample, actives were picked, then their nearest neighbours and some compounds at random.
Reply using exactly one outcome from 1.0 (active), 0.0 (inactive)

Worked examples, 3 molecules total:
molecule	category
COC1CC(OC2C(C)=CCC3CC(CC4(CCC(C)C(C5CCCCC5)O4)O3)OC(=O)C3C=C(C)C(=NO)C4OCC(=CC=CC2C)C34O)OC(C)C1O (centres undefined)	0.0
CO[C@H]1C[C@H](O[C@@H]2/C(C)=C/C[C@@H]3C[C@@H](C[C@]4(CC[C@H](C)[C@@H](C5CCCCC5)O4)O3)OC(=O)[C@@H]3C=C(C)/C(=N/O)[C@H]4OC/C(=C\C=C\[C@@H]2C)[C@]43O)O[C@@H](C)[C@@H]1O	1.0
CO[C@H]1C[C@@H](O[C@@H]2/C(C)=C/C[C@@H]3C[C@@H](C[C@]4(CC[C@H](C)[C@@H](C5CCCCC5)O4)O3)OC(=O)[C@@H]3C=C(C)/C(=N/O)[C@H]4OC/C(=C\C=C\[C@@H]2C)[C@]43O)O[C@@H](C)[C@@H]1O	0.0

# input for lookup
Query: Could you please tell me the result logged for "CN[C@@H]1[C@@H](C)O[C@@H](O[C@H]2[C@H](C)O[C@@H](O[C@@H]3/C(C)=C/C[C@@H]4C[C@@H](C[C@]5(C=C[C@H](C)[C@@H](C(C)C)O5)O4)OC(=O)[C@@H]4C=C(C)[C@@H](O)[C@H]5OC/C(=C\C=C\[C@@H]3C)[C@]54O)C[C@@H]2OC)C[C@H]1OC" in this assay?
Response: 1.0

Data origin: the antibiotic and cytotoxicity screens of Wong et al. (2023)
